Source: patent US5561042A

# measured.target: poly (dA.dT) - poly (dA.dT)
# method.notes: Ethidium bromide displacement, poly(dA.dT)-poly(dA.dT)
# reported.conditions: 1 μM DNA, 1.26 μM ethidium bromide, pH 7.0, read-out: FI50, poly (dA.dT) - poly (dA.dT)
# Protocol: A 10× Binding solution was prepared by combining 0.93 ml of an aqueous NaCl solution (5M), 2.0 ml of an aqueous Tris HCl (500 mM) solution, 0.1 ml of an EDTA solution (500 mM) and 46.97 ml of water. […] Poly (dG·dC)-(dG·dC), poly(dA·dt)-(dA·dt) and lambda DNA concentrations were determined as follows: 980 μl of 10× DNA Binding Solution was pipetted into a 1 ml cuvette. […] This procedure was followed for three different solutions with the absorbance taken as the average of the three. […]
Please note: IC50 exactly at 20 µM is NOT MET. Only values below 20 µM get MET.

**Q:** Lab log: compare recorded IC50 with 20 µM; is it strictly lower for O=C1c2cccc3cc([N+](=O)[O-])cc(c23)C(=O)N1CCNCCSCCN1C(=O)c2cccc3cc([N+](=O)[O-])cc(c23)C1=O ?
**A:** MET

**Q:** Lab log: compare recorded IC50 with 20 µM; is it strictly lower for C[C@H](CNCCNC[C@@H](C)N1C(=O)c2cccc3cc([N+](=O)[O-])cc(c23)C1=O)N1C(=O)c2cccc3cc([N+](=O)[O-])cc(c23)C1=O ?
**A:** MET

**Q:** Lab log: compare recorded IC50 with 20 µM; is it strictly lower for O=C1c2cccc3cc([N+](=O)[O-])cc(c23)C(=O)N1CCNCCS(=O)(=O)CCN1C(=O)c2cccc3cc([N+](=O)[O-])cc(c23)C1=O [Compound 14] ?
**A:** NOT MET

**Q:** Lab log: compare recorded IC50 with 20 µM; is it strictly lower for O=C1c2cccc3cc([N+](=O)[O-])cc(c23)C(=O)N1CCNCC[S+]([O-])CCN1C(=O)c2cccc3cc([N+](=O)[O-])cc(c23)C1=O (stereo not shown) [Compound 13] ?
**A:** MET

**Q:** Lab log: compare recorded IC50 with 20 µM; is it strictly lower for O=C1c2cccc3cc([N+](=O)[O-])cc(c23)C(=O)N1CCNCCS(=O)(=O)CCN1C(=O)c2cccc3cc([N+](=O)[O-])cc(c23)C1=O [Compound 15] ?
**A:** MET

**Q:** Lab log: compare recorded IC50 with 20 µM; is it strictly lower for O=C1c2cccc3cc([N+](=O)[O-])cc(c23)C(=O)N1CCNCC[S+]([O-])CCN1C(=O)c2cccc3cc([N+](=O)[O-])cc(c23)C1=O (stereo not shown) [Compound 12] ?
**A:** MET

**Q:** Lab log: compare recorded IC50 with 20 µM; is it strictly lower for O=C1c2cccc3cc([N+](=O)[O-])cc(c23)C(=O)N1CCOCCOCCN1C(=O)c2cccc3cc([N+](=O)[O-])cc(c23)C1=O ?
**A:** NOT MET
